- Test system: HCV replicon cells (wild-type clone 24-2, Huh-7)
- experiment: 2-day Replicon assay with bDNA quantitation, checkerboard combination (Bliss independence / MacSynergy)
- Type: cell-based
- condition: Hepatitis C virus, Huh-7, 48 h, VX-950 in the checkerboard experiment with the named polymerase inhibitor, read-out: VX-950 IC50
pIC50: −log10 of the molar value.

compound	pIC50
CCC[C@H](NC(=O)[C@@H]1[C@H]2CCC[C@H]2CN1C(=O)[C@@H](NC(=O)[C@@H](NC(=O)c1cnccn1)C1CCCCC1)C(C)(C)C)C(=O)C(=O)NC1CC1 [VX-950]	6.51

----------
- Test system: HCV NS3 protease variant replicon R155K
- experiment: microbe, parasite or virus in culture
- Assay type: cell-based
- condition: Hepatitis C virus, read-out: Avg. IC50

molecule	IC50
NC(=O)c1ncn([C@@H]2O[C@H](CO)[C@@H](O)[C@H]2O)n1 [Ribavirin, reference compound]	37.2 µM

----------
This section presents compounds with their documented Fold Change values.
- Test system: HCV NS3 protease variant replicon A156T
- experiment: 2-Day HCV Replicon IC50 Assay, A156T
- Format: cell-based
- condition: A156T; ratio of mutant IC50 to Wild type IC50 for the same inhibitor

smiles_representation	limit_sign	Fold Change
CCN(CC)C1CCN(C(=O)Cn2c(-c3ccc(Cl)cc3)c(C3CCCCC3)c3ccc(C(=O)O)cc32)CC1	=	1.0
CCC[C@H](NC(=O)[C@@H]1[C@H]2CCC[C@H]2CN1C(=O)[C@@H](NC(=O)[C@@H](NC(=O)c1cnccn1)C1CCCCC1)C(C)(C)C)C(=O)C(=O)NC1CC1	>	65.2
O=c1c(C2=NS(=O)(=O)c3ccccc3N2)c(O)c2ccccc2n1NC1CCC1	=	0.9
C[C@@]1(O)[C@H](O)[C@@H](CO)O[C@H]1n1ccc(N)nc1=O	=	0.9

----------
- Test system: HCV NS3 protease variant replicon V36A
- experiment: microbe, parasite or virus in culture
- Assay type: cell-based
- condition: V36A; ratio of mutant IC50 to Wild type IC50 for the same inhibitor

compound	Fold Change
O=c1c(C2=NS(=O)(=O)c3ccccc3N2)c(O)c2ccccc2n1NC1CCC1	1.6
NC(=O)c1ncn([C@@H]2O[C@H](CO)[C@@H](O)[C@H]2O)n1 [Ribavirin, reference compound]	0.7
CCC[C@H](NC(=O)[C@@H]1[C@H]2CCC[C@H]2CN1C(=O)[C@@H](NC(=O)[C@@H](NC(=O)c1cnccn1)C1CCCCC1)C(C)(C)C)C(=O)C(=O)NC1CC1	7.7 ± 2.3
CCN(CC)C1CCN(C(=O)Cn2c(-c3ccc(Cl)cc3)c(C3CCCCC3)c3ccc(C(=O)O)cc32)CC1	1.2
C[C@@]1(O)[C@H](O)[C@@H](CO)O[C@H]1n1ccc(N)nc1=O	1.6

----------
- Test system: HCV NS3 protease variant replicon R155K
- experiment: microbe, parasite or virus in culture
- Assay type: cell-based
- condition: Hepatitis C virus, read-out: Avg. IC50 ± STDEV
pIC50: −log10 of the molar value.

smiles_representation	target_desc	pIC50
CCC[C@H](NC(=O)[C@@H]1[C@H]2CCC[C@H]2CN1C(=O)[C@@H](NC(=O)[C@@H](NC(=O)c1cnccn1)C1CCCCC1)C(C)(C)C)C(=O)C(=O)NC1CC1	HCV NS3 protease variant replicon R155K	5.45
CCN(CC)C1CCN(C(=O)Cn2c(-c3ccc(Cl)cc3)c(C3CCCCC3)c3ccc(C(=O)O)cc32)CC1	HCV NS3 protease variant replicon R155K	6.41
O=c1c(C2=NS(=O)(=O)c3ccccc3N2)c(O)c2ccccc2n1NC1CCC1	HCV NS3 protease variant replicon R155K	6.35
C[C@@]1(O)[C@H](O)[C@@H](CO)O[C@H]1n1ccc(N)nc1=O	HCV NS3 protease variant replicon R155K	5.63

----------
- System: HCV NS3 protease variant replicon A156T
- experiment: 2-Day HCV Replicon IC50 Assay, A156T
- Format: cell-based
- condition: Hepatitis C virus, read-out: Avg. IC50 ± STDEV
pIC50: −log10 of the molar value.

compound	limit_sign	pIC50
CCN(CC)C1CCN(C(=O)Cn2c(-c3ccc(Cl)cc3)c(C3CCCCC3)c3ccc(C(=O)O)cc32)CC1 [Formula III]	=	6.51
O=c1c(C2=NS(=O)(=O)c3ccccc3N2)c(O)c2ccccc2n1NC1CCC1 [Formula II]	=	6.49
C[C@@]1(O)[C@H](O)[C@@H](CO)O[C@H]1n1ccc(N)nc1=O [Formula I]	=	5.90
CCC[C@H](NC(=O)[C@@H]1[C@H]2CCC[C@H]2CN1C(=O)[C@@H](NC(=O)[C@@H](NC(=O)c1cnccn1)C1CCCCC1)C(C)(C)C)C(=O)C(=O)NC1CC1 [VX-950]	<	4.52

----------
- System: HCV NS3 protease variant replicon V36M
- experiment: microbe, parasite or virus in culture
- Assay type: cell-based
- condition: Hepatitis C virus, read-out: Avg. IC50
pIC50: −log10 of the molar value.

compound	pIC50
NC(=O)c1ncn([C@@H]2O[C@H](CO)[C@@H](O)[C@H]2O)n1 [Ribavirin, reference compound]	4.48

----------
Below, each entry is listed with its recorded pIC50.
- Tested on: HCV NS3 protease variant replicon V36A
- experiment: microbe, parasite or virus in culture
- Type: cell-based
- condition: Hepatitis C virus, read-out: Avg. IC50 ± STDEV
pIC50: −log10 of the molar value.

smiles_representation	pIC50
CCC[C@H](NC(=O)[C@@H]1[C@H]2CCC[C@H]2CN1C(=O)[C@@H](NC(=O)[C@@H](NC(=O)c1cnccn1)C1CCCCC1)C(C)(C)C)C(=O)C(=O)NC1CC1	5.45
C[C@@]1(O)[C@H](O)[C@@H](CO)O[C@H]1n1ccc(N)nc1=O	5.67
CCN(CC)C1CCN(C(=O)Cn2c(-c3ccc(Cl)cc3)c(C3CCCCC3)c3ccc(C(=O)O)cc32)CC1	6.43
O=c1c(C2=NS(=O)(=O)c3ccccc3N2)c(O)c2ccccc2n1NC1CCC1	6.24
